B1: Zinc finger MYM-type protein 3, residues 405 to 444; numbered along this chain, Q14202 (parent)
chain: DATRCSICQKTGEVLHEVSNGSVVHRLCSDSCFSKFRANK

- Variants of: B1
- PROTOCOL: abundance fitness (aPCA) (normalised: wild type 0, dead -1); higher = more abundant; growth selection in yeast, the domain comes from the species named
- CONDITION_SUMMARY: Homo sapiens
QUANTITY_NAME: abundance fitness
Just the number.

{"VARIANT_DESCRIPTOR": "Q9K", "abundance fitness": -0.05}
{"VARIANT_DESCRIPTOR": "S6D", "abundance fitness": -0.302}

Note: attention shifts to another entry.
Answer with reported abundance fitness of E13V
-0.298
